measurement-notes: AUC (0-6h) in rat at 10 mg/kg, po
Format: ADME, organism-based, Plasma
Set-up: time < 6 hr, dose 10 mg/kg, route oral
cond: plasma
measurement-name: AUC(0-t) at 6 h (ng·h/mL)
Write the answer as a number in ng·h/mL, unit excluded.

Some compounds with known AUC(0-t) at 6 h results, for comparison:
{"compound": "CN1CCN(CCCN(C(=O)Nc2ccc(F)c(Cl)c2)[C@@H]2CC[C@]3(c4ccc(S(C)(=O)=O)cc4)C[C@H]23)CC1 (relative stereo)", "unit-descriptor": "ng·h/mL", "AUC(0-t) at 6 h": 2340}
{"compound": "CN1CCN(CCCN(C(=O)Nc2ccc(F)c(Cl)c2)[C@@H]2CC[C@]3(c4ccc(OC(F)(F)F)cc4)C[C@H]23)CC1 (relative stereo)", "unit-descriptor": "ng·h/mL", "AUC(0-t) at 6 h": 578}

Give the reported value of AUC(0-t) at 6 h for this record: N#Cc1cccc([C@]23CC[C@@H](N(CCN4CCCCC4)C(=O)Nc4ccc(F)c(Cl)c4)[C@H]2C3)c1 (relative stereo)
999

Quick one: give measured AUC(0-t) at 6 h for CN1CCN(CCCN(C(=O)Nc2ccc(F)c(Cl)c2)[C@@H]2CC[C@]3(c4cc(F)cc(F)c4)C[C@H]23)CC1 (relative stereo)
2740

Look up and state reported AUC(0-t) at 6 h for CC(C)CN1CCN(CCN(C(=O)Nc2ccc(F)c(C(F)(F)F)c2)[C@@H]2CC[C@]3(c4cccc(C#N)c4)C[C@H]23)CC1 (relative stereo)
140

Please indicate AUC(0-t) at 6 h recorded for CN1CCN(CCCN(C(=O)Nc2ccc(F)c(Cl)c2)[C@@H]2CC[C@]3(c4ccccc4)C[C@H]23)CC1 (relative stereo)
1130

Give AUC(0-t) at 6 h for the following compound: `N#Cc1cccc([C@]23CC[C@@H](N(CCN4CC[C@@H](O)C4)C(=O)Nc4ccc(F)c(C(F)(F)F)c4)[C@H]2C3)c1`
2190

In one line, give reported AUC(0-t) at 6 h of the entry N#Cc1ccc([C@]23CC[C@@H](N(CCCN4CCNCC4)C(=O)Nc4ccc(F)c(C(F)(F)F)c4)[C@H]2C3)cc1 (relative stereo) .
3470

// fetch AUC(0-t) at 6 h given entry COc1cccc([C@]23CC[C@@H](N(CCCN4CCN(C)CC4)C(=O)Nc4ccc(F)c(C(F)(F)F)c4)[C@H]2C3)c1 (relative stereo)
571
